pIC50: −log10 of the molar value.
p97 (Homo sapiens, UniProt P55072) data, read-out pIC50
Sequence (P55072 whole entry): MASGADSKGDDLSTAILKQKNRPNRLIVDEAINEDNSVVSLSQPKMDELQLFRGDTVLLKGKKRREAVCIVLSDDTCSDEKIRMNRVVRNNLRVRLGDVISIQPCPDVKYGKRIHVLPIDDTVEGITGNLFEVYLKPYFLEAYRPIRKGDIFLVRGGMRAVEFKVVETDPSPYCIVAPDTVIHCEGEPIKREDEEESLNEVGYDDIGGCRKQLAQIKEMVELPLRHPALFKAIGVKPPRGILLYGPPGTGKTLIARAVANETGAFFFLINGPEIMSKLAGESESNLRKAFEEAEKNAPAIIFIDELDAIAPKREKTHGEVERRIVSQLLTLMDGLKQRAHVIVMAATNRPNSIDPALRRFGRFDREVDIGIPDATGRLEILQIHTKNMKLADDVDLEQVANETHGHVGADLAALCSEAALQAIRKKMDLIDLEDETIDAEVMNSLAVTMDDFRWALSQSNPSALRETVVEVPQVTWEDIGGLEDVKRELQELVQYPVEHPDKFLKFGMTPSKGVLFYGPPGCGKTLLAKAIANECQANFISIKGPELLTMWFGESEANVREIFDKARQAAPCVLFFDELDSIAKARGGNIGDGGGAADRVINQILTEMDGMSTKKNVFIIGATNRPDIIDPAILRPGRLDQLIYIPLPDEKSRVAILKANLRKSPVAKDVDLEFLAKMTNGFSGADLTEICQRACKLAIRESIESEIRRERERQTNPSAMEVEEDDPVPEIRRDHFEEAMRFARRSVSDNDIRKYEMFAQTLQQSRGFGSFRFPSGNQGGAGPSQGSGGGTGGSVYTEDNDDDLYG

Cc1nc(NCc2ccccc2)nc(-n2c(C)cc3c(C(N)=O)cccc32)n1
> 7.00

Below: the item to evaluate.
**Query** For the compound `COc1nc2c(C#N)cccc2n1-c1nnc(C)c(NCc2ccccc2)n1` , what pIC50 is on record?
**Result** > 5.00
